Source of measurements: patent US8022055B2

I'd be grateful if you could share measured IC50 for cell lines DU145 for these entries.
# Test system: DU145
# TEST_METHOD_NOTES: three day MTT cytotoxicity assay, DU145
# Type: cell-based, human
# CONDITION_INFO: DU145, 72 hours
// units = µg/mL; emit number, no label

q: Please report the recorded IC50 for cell lines DU145 for CC(C)[C@@H]1CC[C@]2(C(=O)O)CC[C@]3(C)[C@H](CC[C@@H]4[C@@]5(C)Cc6c([nH]c7ccc(Cl)cc67)C(C)(C)[C@@H]5CC[C@]43C)[C@@H]12 .
a: 6.5

q: Returns the measured IC50 for cell lines DU145 for the input compound. Input: C=C(C)[C@@H]1CC[C@]2(C(=O)O)CC[C@]3(C)C(CCC4[C@@]5(C)Cc6c([nH]c7ccc(Cl)cc67)C(C)(C)C5CC[C@]43C)C12 (some centres unmarked)
a: 4.9

q: I'd like to know its IC50 for cell lines DU145. The compound in question is C=C(C)[C@@H]1CC[C@]2(C(=O)O)CC[C@]3(C)[C@H](CC[C@@H]4[C@@]5(C)Cc6c([nH]c7ccc(OC)cc67)C(C)(C)[C@@H]5CC[C@]43C)[C@@H]12
a: 5.75

* * *

# TEST_METHOD_NOTES: in vivo
# CONDITION_INFO: male, Wistar, rat, iv, 10 mg/kg
ASSAY_READOUT: half-life (h)
Give a bare numeral; the unit h is implied.

q: Field request: half-life | item: CC(C)[C@@H]1CC[C@]2(C(=O)O)CC[C@]3(C)C(CCC4[C@@]5(C)CC/C(=N/Oc6ccc([N+](=O)[O-])cc6)C(C)(C)C5CC[C@]43C)C12 (stereo partly shown)
a: 9.9

* * *

# System: K562
# TEST_METHOD_NOTES: three day MTT cytotoxicity assay, K562
# Type: cell-based, human
# CONDITION_INFO: ratio of IC50 of NIH 3T3 cells to K562
Could you please report measured Specific Index (SI) for cell lines K562 for the items listed next?
Quick one: just the number, no unit, thanks!

q: Any idea what its Specific Index (SI) for cell lines K562 is? The compound is CC(C)[C@@H]1CC[C@]2(C(=O)O)CC[C@]3(C)[C@H](CC[C@@H]4[C@@]5(C)Cc6c([nH]c7ccc(F)cc67)C(C)(C)[C@@H]5CC[C@]43C)[C@@H]12 [Compound 8]
a: 1.041

q: What Specific Index (SI) for cell lines K562 value was documented for this compound, C=C(C)[C@@H]1CC[C@]2(C(=O)O)CC[C@]3(C)[C@H](CC[C@@H]4[C@@]5(C)Cc6c([nH]c7c(Cl)cccc67)C(C)(C)[C@@H]5CC[C@]43C)[C@@H]12 [Compound 9] ?
a: 1.274

q: What does the record list as Specific Index (SI) for cell lines K562 for C=C(C)[C@@H]1CC[C@]2(C(=O)O)CC[C@]3(C)C(CCC4[C@@]5(C)Cc6c([nH]c7ccc(Cl)cc67)C(C)(C)C5CC[C@]43C)C12 (stereo partly shown) [Compound 5] ?
a: 0.478

q: # Specific Index (SI) for cell lines K562 lookup, item C=C(C)[C@@H]1CC[C@]2(C(=O)NCC(=O)O)CC[C@]3(C)[C@H](CC[C@@H]4[C@@]5(C)Cc6c([nH]c7ccccc67)C(C)(C)[C@@H]5CC[C@]43C)[C@@H]12 [Compound 22]
a: 0.057

q: What Specific Index (SI) for cell lines K562 value was documented for this compound, CC(C)[C@@H]1CC[C@]2(C(=O)O)CC[C@]3(C)[C@H](CC[C@@H]4[C@@]5(C)Cc6c(oc7ccccc67)C(C)(C)[C@@H]5CC[C@]43C)[C@@H]12 [Compound 12] ?
a: 1.309

q: Look up Specific Index (SI) for cell lines K562 for this compound: C=C(C)[C@@H]1CC[C@]2(C(=O)O)CC[C@]3(C)[C@H](CC[C@@H]4[C@@]5(C)Cc6c([nH]c7ccccc67)C(C)(C)[C@@H]5CC[C@]43C)[C@@H]12 [Compound 1]
a: 0.68

q: Which Specific Index (SI) for cell lines K562 is listed for C=C(C)[C@@H]1CC[C@]2(C(=O)O)CC[C@]3(C)C(CCC4[C@@]5(C)Cc6c(n(C)c7ccccc67)C(C)(C)C5CC[C@]43C)C12 (stereo partly shown) [Compound 3] ?
a: 1.956

* * *

# Tested on: DU145
# TEST_METHOD_NOTES: three day MTT cytotoxicity assay, DU145
# Assay type: cell-based, human
# CONDITION_INFO: DU145, 72 hours
ASSAY_READOUT: IC50 for cell lines DU145

q: Name the recorded IC50 for cell lines DU145 for C=C(C)[C@@H]1CC[C@]2(C(=O)O)CC[C@]3(C)C(CCC4[C@@]5(C)Cc6c(oc7ccccc67)C(C)(C)C5CC[C@]43C)C12 (some centres unmarked) [Compound 11] .
a: >20 µg/mL

q: Name the recorded IC50 for cell lines DU145 for CC(C)[C@@H]1CC[C@]2(C(=O)O)CC[C@]3(C)C(CCC4[C@@]5(C)Cc6c([nH]c7ccccc67)C(C)(C)C5CC[C@]43C)C12 (some centres unmarked) [Compound 2] .
a: >20 µg/mL

q: Would you mind telling me what IC50 for cell lines DU145 value was observed for C#CCNC(=O)[C@]12CC[C@@H](C(=C)C)C1C1CCC3[C@@]4(C)Cc5c([nH]c6ccc(Cl)cc56)C(C)(C)C4CC[C@@]3(C)[C@]1(C)CC2 (some centres unmarked) [Compound 27] ?
a: >20 µg/mL

q: Given C=C(C)[C@@H]1CC[C@]2(C(=O)NCC(=O)O)CC[C@]3(C)[C@H](CC[C@@H]4[C@@]5(C)Cc6c([nH]c7ccccc67)C(C)(C)[C@@H]5CC[C@]43C)[C@@H]12 [Compound 22] , state its recorded IC50 for cell lines DU145.
a: 7.0 µg/mL

q: So what's the measured IC50 for cell lines DU145 for this one? CC(C)[C@@H]1CC[C@]2(C(=O)OCc3ccccc3)CC[C@]3(C)C(CCC4[C@@]5(C)Cc6c([nH]c7ccccc67)C(C)(C)C5CC[C@]43C)C12 (some centres unmarked) [Compound 16]
a: >20 µg/mL

q: Quick check: IC50 for cell lines DU145 of C=C(C)[C@@H]1CC[C@]2(C(=O)O)CC[C@]3(C)C(CCC4[C@@]5(C)Cc6c([nH]c7cc(Cl)cc(Cl)c67)C(C)(C)C5CC[C@]43C)C12 (some centres unmarked) [Compound 31] ?
a: >20 µg/mL

q: Tell me the measured IC50 for cell lines DU145 of CC(C)[C@@H]1CC[C@]2(C(=O)O)CC[C@]3(C)C(CCC4[C@@]5(C)Cc6c(n(C)c7ccccc67)C(C)(C)C5CC[C@]43C)C12 (some centres unmarked) [Compound 4] , please.
a: >20 µg/mL

q: Name the recorded IC50 for cell lines DU145 for C=C(C)[C@@H]1CC[C@]2(C(=O)OCc3ccccc3)CC[C@]3(C)C(CCC4[C@@]5(C)Cc6c([nH]c7ccc(Cl)cc67)C(C)(C)C5CC[C@]43C)C12 (some centres unmarked) [Compound 19] .
a: >20 µg/mL

q: For the molecule shown here, C=C(C)[C@@H]1CC[C@]2(C(=O)O)CC[C@]3(C)[C@H](CC[C@@H]4[C@@]5(C)Cc6c([nH]c7ccccc67)C(C)(C)[C@@H]5CC[C@]43C)[C@@H]12 [Compound 1] , give the reported IC50 for cell lines DU145.
a: 8.86 µg/mL

q: Recorded IC50 for cell lines DU145 of C=CCOC(=O)[C@]12CC[C@@H](C(=C)C)C1C1CCC3[C@@]4(C)Cc5c([nH]c6ccccc56)C(C)(C)C4CC[C@@]3(C)[C@]1(C)CC2 (some centres unmarked) [Compound 18] , please.
a: >20 µg/mL

q: Give its IC50 for cell lines DU145 value. Item: C=C(C)[C@@H]1CC[C@]2(C(=O)OCc3ccccc3)CC[C@]3(C)C(CCC4[C@@]5(C)Cc6c([nH]c7ccccc67)C(C)(C)C5CC[C@]43C)C12 (some centres unmarked) [Compound 15]
a: >20 µg/mL

* * *

# System: Miapaca
# TEST_METHOD_NOTES: three day MTT cytotoxicity assay, Miapaca
# Type: cell-based, human
# CONDITION_INFO: ratio of IC50 of NIH 3T3 cells to Miapaca
ASSAY_READOUT: Specific Index (SI) for cell lines Miapaca
Write the value as a bare number.

q: // query Specific Index (SI) for cell lines Miapaca value for entry C=C(C)[C@@H]1CC[C@]2(C(=O)NCC(=O)O)CC[C@]3(C)[C@H](CC[C@@H]4[C@@]5(C)Cc6c([nH]c7ccccc67)C(C)(C)[C@@H]5CC[C@]43C)[C@@H]12 [Compound 22]
a: 1.015

q: So what's the measured Specific Index (SI) for cell lines Miapaca for this one? C=C(C)[C@@H]1CC[C@]2(C(=O)O)CC[C@]3(C)[C@H](CC[C@@H]4[C@@]5(C)Cc6c([nH]c7ccc(OC)cc67)C(C)(C)[C@@H]5CC[C@]43C)[C@@H]12 [Compound 10]
a: 1.172

q: Would you mind telling me what Specific Index (SI) for cell lines Miapaca value was observed for C=C(C)[C@@H]1CC[C@]2(C(=O)O)CC[C@]3(C)C(CCC4[C@@]5(C)Cc6c(n(C)c7ccccc67)C(C)(C)C5CC[C@]43C)C12 (some centres unmarked) [Compound 3] ?
a: 2.831

q: # query: Specific Index (SI) for cell lines Miapaca of entry CC(C)[C@@H]1CC[C@]2(C(=O)O)CC[C@]3(C)[C@H](CC[C@@H]4[C@@]5(C)Cc6c([nH]c7ccc(Cl)cc67)C(C)(C)[C@@H]5CC[C@]43C)[C@@H]12 [Compound 6]
a: 1.252

q: // returns reported Specific Index (SI) for cell lines Miapaca for input C=C(C)[C@@H]1CC[C@]2(C(=O)O)CC[C@]3(C)[C@H](CC[C@@H]4[C@@]5(C)Cc6c([nH]c7c(Cl)cccc67)C(C)(C)[C@@H]5CC[C@]43C)[C@@H]12 [Compound 9]
a: 1.017

q: Please report the recorded Specific Index (SI) for cell lines Miapaca for C=C(C)[C@@H]1CC[C@]2(C(=O)O)CC[C@]3(C)C(CCC4[C@@]5(C)Cc6c([nH]c7ccc(Cl)cc67)C(C)(C)C5CC[C@]43C)C12 (some centres unmarked) [Compound 5] .
a: 1.885
